Test system: SZ95 (immortalized human sebaceous gland cells) cells
Test: Sentinel lipid assay (desaturation index in SZ95 sebocytes)
Format: cell-based
Settings: percent compared to the reference compound (Compound H), 72h, read-out: SLA Amax
# Emax annotations
Entry rule: numbers only, all in %.

Answered cases to consult:
O=C(O)Cn1ccc2c(OCCCN(Cc3cccc(C(F)(F)F)c3Cl)CC(c3ccccc3)c3ccccc3)cccc21: 104
CCCc1c(OCCCN(C)c2cnc(CC(=O)O)cn2)ccc2c(C(F)(F)F)noc12: 81.8
CC(C)(O)c1cn(-c2ccc(-c3cc(F)c(CO)c(S(C)(=O)=O)c3)cc2F)c(C(C)(C)c2c(Cl)cccc2Cl)n1: 60.2
CC(C)[C@@H]1CN(c2ccc(CO)c(S(C)(=O)=O)c2)CCN1c1ncc(CO)c(C(F)(F)F)n1: 65.6

The value of Emax measured for the molecule `O=C(O)Cc1cccc(OCCCN(Cc2cccc(C(F)(F)F)c2Cl)CC(c2ccccc2)c2ccccc2)c1` turned out to be 97.4

Looking up `CCOC(=O)Cn1nc(C(F)(F)F)cc1-c1ccc(-c2cccc(S(C)(=O)=O)c2)cc1` , I found its Emax recorded as 98.8

For record `Fc1ccc(-c2c3cccc(C(F)(F)F)c3nn2Cc2ccc(F)cc2Cl)cc1` the listed Emax is 33.3

Lookup result for `CCN(Cc1ccccc1)c1ccc(C(O)(C(F)(F)F)C(F)(F)F)cc1Cl` ; measured Emax: 58

Note to self: Emax recorded for `CN(C)C(=O)c1ccc(-c2cnc(N3CCN(C(=O)C(C)(C)c4ccccc4)CC3)c(C#N)c2)cc1Cl` was 151

Please fill in: Emax reported for `O=S(=O)(c1ccccc1)N(CC(F)(F)F)c1ccc(C(O)(C(F)(F)F)C(F)(F)F)cc1` = 89.8

###

System: SZ95 (immortalized human sebaceous gland cells) cells
Assay: Sentinel lipid assay (desaturation index in SZ95 sebocytes)
Assay type: cell-based
Settings: percent compared to the reference compound (Compound H), 72h, read-out: SLA Amax
Reported Emax values for a set of compounds
Answer with a number only, understood to be in %.

Some compounds with known Emax results, for comparison:
CC(C)[C@@H]1c2nc3cc(CO)c(S(C)(=O)=O)cc3n2CCN1c1ncc(C(C)(C)O)c(C(F)(F)F)n1 [Compound N]: 165
CC(C)(C)N1C(=O)C(Nc2ccc(N3CCCCC3)cc2)=C(c2ccccc2)S1(=O)=O [Compound B]: 92
CN(C)C(=O)c1ccc(N2CCC(C3CCN(S(=O)(=O)c4ccccc4Cl)CC3)CC2)cc1Cl [Compound M]: 29.2

Okay, now this compound:
What the record says about C[C@H](CCOc1cccc(C(C)(C)C(=O)O)c1)N(Cc1cccc(C(F)(F)F)c1Cl)CC(c1ccccc1)c1ccccc1 [Compound C] : Emax is 90.7

###

Experiment: Eyelid pharmacokinetics: compound concentration in rabbit meibomian gland
Type: in vivo
Conditions: meibomian gland, topical, 3 h, 30 microliters of 1% suspension applied to eyelid, triplicate
reported_endpoint: concentration at 3 h (µM)
Unit µM implied. Number only.

Record `CCOC(=O)Cn1nc(C(F)(F)F)cc1-c1ccc(-c2cccc(S(C)(=O)=O)c2)cc1` , field concentration at 3 h: 3.78

###

Tested on: SCD1 protein production in SZ95-SCD1-HiBit cells
Test: Measurement of SCD1 expression in SZ95-SCD1-HiBit cells (HiBiT assay)
Format: cell-based
Conditions: Homo sapiens; SZ95-SCD1-HiBit cells, 48h incubation, top concentration 18 μM
reported_endpoint: pEC50
// scale note: pEC50 = -log10(conc_M); give the bare number

Solved cases below.
CC(C)[C@@H]1c2nc3cc(CO)c(S(C)(=O)=O)cc3n2CCN1c1ncc(C(C)(C)O)c(C(F)(F)F)n1: 8.40
CC(C)[C@@H]1CN(c2ccc(CO)c(S(C)(=O)=O)c2)CCN1c1ncc(CO)c(C(F)(F)F)n1: 8.70
CN(C)C(=O)c1ccc(-c2cnc(N3CCN(C(=O)C(C)(C)c4ccccc4)CC3)c(C#N)c2)cc1Cl: 6.27

Turning now to a further record.
Value of measured pEC50 for the entry `O=C(O)Cc1cccc(OCCCN(Cc2cccc(C(F)(F)F)c2Cl)CC(c2ccccc2)c2ccccc2)c1` : 6.95

Hello, the source for this data is patent US20220257596A1, in case you need it.
